Some compounds, each annotated with its measured Activity.
- System: Epithelial cell
- EXPERIMENTAL_PROTOCOL: Recovery of short-circuit current in dog primary bronchial epithelial cells
- Assay type: functional, Canis lupus familiaris

- COMPOUND: "N/C(=N\\C(=O)c1nc(Cl)c(N)nc1N)NCCc1ccc(O)cc1"
  VALUE_UNIT: "%"
  Activity: 65
- COMPOUND: "N/C(=N\\C(=O)c1nc(Cl)c(N)nc1N)NCCO"
  VALUE_UNIT: "%"
  Activity: 77
- COMPOUND: "N/C(=N\\C(=O)c1nc(Cl)c(N)nc1N)NCCCCc1ccc(O)cc1"
  VALUE_UNIT: "%"
  Activity: 24
- COMPOUND: "N/C(=N\\C(=O)c1nc(Cl)c(N)nc1N)NCCCCc1ccc(OCCO)cc1"
  VALUE_UNIT: "%"
  Activity: 29
- COMPOUND: "N/C(=N\\C(=O)c1nc(Cl)c(N)nc1N)NCCCCc1ccc(OC[C@@H](O)CO)cc1"
  VALUE_UNIT: "%"
  Activity: 18
- COMPOUND: "COc1ccc(CCCC/N=C(\\N)NC(=O)c2nc(Cl)c(N)nc2N)cc1"
  VALUE_UNIT: "%"
  Activity: 19
- COMPOUND: "N/C(=N\\C(=O)c1nc(Cl)c(N)nc1N)NCCCCc1ccc(OS(=O)(=O)O)cc1"
  VALUE_UNIT: "%"
  Activity: 53
- COMPOUND: "N/C(=N\\C(=O)c1nc(Cl)c(N)nc1N)NCCCCc1cccc(OCC(O)CO)c1 (stereo unspecified)"
  VALUE_UNIT: "%"
  Activity: 37
- COMPOUND: "N=C(NC(=O)c1nc(Cl)c(N)nc1N)Nc1ccccc1"
  VALUE_UNIT: "%"
  Activity: 15
- COMPOUND: "N/C(=N\\C(=O)c1nc(Cl)c(N)nc1N)NCCCCc1ccc(C(=O)O)cc1"
  VALUE_UNIT: "%"
  Activity: 65
- COMPOUND: "N/C(=N\\C(=O)c1nc(Cl)c(N)nc1N)NCCCCc1ccc(OCC(O)CO)cc1 (stereo unspecified) [552-02 FREE BASE]"
  VALUE_UNIT: "%"
  Activity: 20
- COMPOUND: "N/C(=N\\C(=O)c1nc(Cl)c(N)nc1N)NCCCCc1ccccc1"
  VALUE_UNIT: "%"
  Activity: 16
- COMPOUND: "N/C(=N\\C(=O)c1nc(Cl)c(N)nc1N)NCCCCc1ccc(N)cc1"
  VALUE_UNIT: "%"
  Activity: 36
- COMPOUND: "CCCCCC/N=C(\\N)NC(=O)c1nc(Cl)c(N)nc1N"
  VALUE_UNIT: "%"
  Activity: 24
- COMPOUND: "N/C(=N\\C(=O)c1nc(Cl)c(N)nc1N)NCCCCc1ccccc1OCC(O)CO (stereo unspecified)"
  VALUE_UNIT: "%"
  Activity: 63
- COMPOUND: "N/C(=N\\C(=O)c1nc(Cl)c(N)nc1N)NCCCCc1cccc(O)c1"
  VALUE_UNIT: "%"
  Activity: 14
- COMPOUND: "N/C(=N\\C(=O)c1nc(Cl)c(N)nc1N)NCCc1ccccc1"
  VALUE_UNIT: "%"
  Activity: 21
- COMPOUND: "N/C(=N\\C(=O)c1nc(Cl)c(N)nc1N)NCCCCCCCCc1ccccc1"
  VALUE_UNIT: "%"
  Activity: 12
- COMPOUND: "N/C(=N\\C(=O)c1nc(Cl)c(N)nc1N)NCCCCc1cccc(OCCO)c1"
  VALUE_UNIT: "%"
  Activity: 30
- COMPOUND: "COc1ccc(CCCCC/N=C(\\N)NC(=O)c2nc(Cl)c(N)nc2N)cc1"
  VALUE_UNIT: "%"
  Activity: 5.5
- COMPOUND: "N/C(=N\\C(=O)c1nc(Cl)c(N)nc1N)NCCCCc1ccc(OC2O[C@H](C(=O)O)[C@@H](O)[C@H](O)[C@H]2O)cc1 (stereo partly specified)"
  VALUE_UNIT: "%"
  Activity: 86
